Molecular target: UniProt:Q12809
Sequence (Q12809 whole entry, looked up): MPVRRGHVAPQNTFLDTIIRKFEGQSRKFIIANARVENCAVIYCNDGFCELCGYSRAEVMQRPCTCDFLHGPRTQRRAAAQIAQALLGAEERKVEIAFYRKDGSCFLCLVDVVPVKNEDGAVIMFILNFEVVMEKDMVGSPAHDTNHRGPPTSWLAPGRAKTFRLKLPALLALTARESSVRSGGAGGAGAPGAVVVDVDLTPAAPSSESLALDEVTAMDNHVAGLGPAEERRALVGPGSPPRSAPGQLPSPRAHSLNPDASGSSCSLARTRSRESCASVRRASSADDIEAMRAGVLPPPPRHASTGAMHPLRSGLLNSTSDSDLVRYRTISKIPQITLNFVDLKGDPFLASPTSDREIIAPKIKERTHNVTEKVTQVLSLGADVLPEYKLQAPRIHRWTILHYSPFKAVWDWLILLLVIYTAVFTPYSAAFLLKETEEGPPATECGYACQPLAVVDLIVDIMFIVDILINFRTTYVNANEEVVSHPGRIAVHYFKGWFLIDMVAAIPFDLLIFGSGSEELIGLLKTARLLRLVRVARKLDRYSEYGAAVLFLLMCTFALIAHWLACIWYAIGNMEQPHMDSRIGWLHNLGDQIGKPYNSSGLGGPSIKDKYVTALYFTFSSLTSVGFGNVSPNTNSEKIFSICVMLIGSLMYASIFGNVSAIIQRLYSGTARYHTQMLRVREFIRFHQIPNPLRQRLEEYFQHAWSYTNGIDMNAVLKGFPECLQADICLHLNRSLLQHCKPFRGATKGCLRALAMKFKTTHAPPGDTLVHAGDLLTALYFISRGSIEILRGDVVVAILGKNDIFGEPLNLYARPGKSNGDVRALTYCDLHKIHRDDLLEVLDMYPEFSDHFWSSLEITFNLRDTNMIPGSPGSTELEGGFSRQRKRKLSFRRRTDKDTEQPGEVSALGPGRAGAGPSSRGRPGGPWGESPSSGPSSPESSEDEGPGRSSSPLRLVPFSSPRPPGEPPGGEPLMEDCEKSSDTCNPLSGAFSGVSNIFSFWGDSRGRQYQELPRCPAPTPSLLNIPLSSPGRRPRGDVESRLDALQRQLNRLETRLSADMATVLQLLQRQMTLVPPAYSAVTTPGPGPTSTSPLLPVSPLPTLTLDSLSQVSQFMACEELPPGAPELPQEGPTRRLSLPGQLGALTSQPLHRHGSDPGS
Experiment: Predictor hERG fluorescence polarization assay
Format: binding
Settings: hERG channel, fluorescence polarization, 8 concentrations; read-out: IC50
measured-parameter: IC50 (µM)
# unit: µM | format: bare number

Task: Give recorded IC50 with UniProt:Q12809 for the following compound: "COC(=O)CC[C@H]1N=C(c2ccccc2Cl)c2cc(Cl)ccc2-n2c(SCCN3CCC(O)CC3)nnc21"
Result: 31.9

###

Catalogue of Duration values
Test system: SD rats
Assay: Test for drug-induced disappearance of righting reflex in rats
Type: in vivo
Conditions: single rapid bolus via tail vein
Experimental: In anesthetic drug experiments, latency generally refers to the time from the start of administration to the loss of consciousness of the subject. The shorter latency is preferred, indicating a rapid onset of action after administration. […] SD rats (male, 200-280 g) were randomly grouped and subjected to a single administration by rapid bolus via the tail vein. The latency and duration of righting reflex in the rats were recorded.
State the result as a value with its unit after it.

molecular_string=COC(=O)CC[C@@H]1N=C(c2ccccc2Cl)c2cc(Cl)ccc2-n2c(SCC(=O)N3CCN(C)CC3)nnc21 measured_parameter=Duration observed_result="17.28 min"
molecular_string=COC(=O)CC[C@@H]1N=C(c2ccccc2Cl)c2cc(Cl)ccc2-n2c(SCCN3CCCC3)nnc21 measured_parameter=Duration observed_result="13.27 min"
molecular_string=COC(=O)CC[C@@H]1N=C(c2ccccc2F)c2cc(Cl)ccc2-n2c1n[nH]c2=S measured_parameter=Duration observed_result="11.03 min"

Task: Which measured Duration belongs to "COC(=O)CC[C@@H]1N=C(c2ccccc2F)c2cc(Br)ccc2-n2c1n[nH]c2=S" , tested on SD rats?
Result: 15.4 min

Task: Provide the documented Duration with SD rats as the system for "COC(=O)CC[C@@H]1N=C(c2ccccc2Cl)c2cc([N+](=O)[O-])ccc2-n2c(SCCN)nnc21"
Result: 25.1 min

Task: Form entry - test system: SD rats; read-out: Duration; compound: "COC(=O)CC[C@H]1N=C(c2ccccc2Cl)c2cc(Cl)ccc2-n2c(SCCN3CCC(O)CC3)nnc21"
Result: 16.64 min

Reference for the values: patent US20230416258A1
